quantityKind: melting point

# count of solved cases: 4
CCOC(=O)c1c[nH]c2c(=O)ccc(NC(=O)CC)cc2c1=O = > 250 °C
CCC(C)(C)Nc1c(NCc2cccc(Cl)c2Cl)c(=O)c1=O = 222 to 223 °C
COc1cccc([C@H]2O[C@H](CC(=O)Nc3cc(CCC(=O)O)ccc3C)C(=O)N(CC(C)(C)CO)c3ccc(Cl)cc32)c1OC = 154 to 155 °C
N#Cc1ccc(-n2c(N)nc3ccccc32)cc1Cl = 245 to 248 °C

Task item: Recorded melting point of Cc1ccc(S(=O)(=O)N(CCN(CC(=O)O)S(=O)(=O)c2ccc(C)cc2)CCN(CC(=O)O)S(=O)(=O)c2ccc(C)cc2)cc1 , please.
Reply: 177 to 180 °C

Task item: What about COc1c(Br)ccc2oc(COc3ccc(-c4ccc(S(=O)(=O)NC(C(=O)O)C(C)C)cc4)cc3)c(C)c12 (stereo not drawn) ?
Reply: 198 to 200 °C

Task item: What about O=C1N(Cc2cncc(F)c2)c2ccccc2C12COc1cc3c(cc12)OCCO3 (stereo not drawn) ?
Reply: 197 to 200 °C

Task item: What about CC1(C)CCCC(C)(C)N1Cc1ccc2cc(NC(=O)c3ccc(-c4ccc(F)cc4)cc3)ccc2c1 ?
Reply: 238 to 241 °C
